assay: Total clearance in Sprague-Dawley rat plasma at 2 mg/kg, iv or 10 mg/kg, po; format: ADME, organism-based
Known clearance of a selection of compounds
Express the result in mL/min/kg but write the number alone.

Some solved cases for reference:
{"columns": ["COMPOUND STRING", "RECORDED MEASUREMENT"],
 "data": [
  ["O=C(O)COC[C@H]1CC[C@H](COC(=O)N(c2ccccc2)c2ccc(Cl)c(F)c2)CC1", 13.3],
  ["O=C(O)COC[C@H]1CC[C@H](COC(=O)N(c2ccccc2)c2ccc(Cl)cc2)CC1", 7.12],
  ["O=C(O)COC[C@H]1CC[C@H](COC(=O)N(c2ccccc2)c2ccc(F)cc2)CC1", 30],
  ["O=C(O)COC[C@H]1CC[C@H](COC(=O)N(c2ccccc2)c2ccc(F)c(F)c2)CC1", 10],
  ["COc1ccc(N(C(=O)OC[C@H]2CC[C@H](COCC(=O)O)CC2)c2ccccc2)cc1", 56.7]
]}

Now consider a different compound.
Report clearance for "O=C(O)COC[C@H]1CC[C@H](COC(=O)N(c2ccccc2)c2cccc(F)c2)CC1" please. 20

###

biological target: Prostacyclin receptor (Rattus norvegicus); experiment: Agonist activity at recombinant rat IP receptor expressed in CHO-K1 cells assessed as increase in intracellular cAMP level after 1 hr incubation by HTRF method
Sequence (P43253 whole entry): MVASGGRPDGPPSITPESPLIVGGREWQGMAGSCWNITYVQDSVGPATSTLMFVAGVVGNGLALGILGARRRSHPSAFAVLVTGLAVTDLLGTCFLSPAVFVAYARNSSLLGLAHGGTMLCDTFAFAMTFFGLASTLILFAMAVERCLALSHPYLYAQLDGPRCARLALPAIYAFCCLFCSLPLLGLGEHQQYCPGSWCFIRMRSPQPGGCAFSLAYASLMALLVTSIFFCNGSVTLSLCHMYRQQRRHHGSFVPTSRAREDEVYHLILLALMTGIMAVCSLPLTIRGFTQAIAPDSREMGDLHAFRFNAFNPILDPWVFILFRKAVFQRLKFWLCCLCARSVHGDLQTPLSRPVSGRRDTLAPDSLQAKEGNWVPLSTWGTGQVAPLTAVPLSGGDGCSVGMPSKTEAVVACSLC
EXPERIMENTAL ENDPOINT: EC50 (µM)
Unit µM implied. Number only.

Can you share its EC50? I mean this compound: "CC(C)N(CCCCOCC(=O)NS(C)(=O)=O)c1cnc(-c2ccccc2)c(-c2ccccc2)n1" 0.2

###

assay: Total clearance in Beagle dog at 0.2 mg/kg, iv; type: ADME, organism-based, Canis lupus familiaris; details: in vivo
EXPERIMENTAL ENDPOINT: clearance (mL/min/kg)
Please give a number only; it is taken to be in mL/min/kg.

Name the recorded clearance for "O=C(O)COC[C@H]1CC[C@H](COC(=O)N(c2ccccc2)c2ccc(Cl)cc2)CC1" . 3.37

###

test system: Rattus norvegicus; assay: AUC (0 to infinity) in Sprague-Dawley rat at 10 mg/kg, po; type: ADME, organism-based; set-up: dose 10 mg/kg, route oral, time infinity; conditions: in vivo
EXPERIMENTAL ENDPOINT: AUC (ng·h/mL)
Give a bare numeral; the unit ng·h/mL is implied.

{"columns": ["COMPOUND STRING", "TEST SYSTEM", "UNIT ABBREV", "RECORDED MEASUREMENT"],
 "data": [
  ["COc1cccc(N(C(=O)OC[C@H]2CC[C@H](COCC(=O)O)CC2)c2ccccc2)c1", "Rattus norvegicus", "ng·h/mL", 1900],
  ["COc1ccc(N(C(=O)OC[C@H]2CC[C@H](COCC(=O)O)CC2)c2ccccc2)cc1", "Rattus norvegicus", "ng·h/mL", 3400]
]}

Item: "O=C(O)COC[C@H]1CC[C@H](COC(=O)N(c2ccccc2)c2ccc(Cl)c(F)c2)CC1" Test system: Rattus norvegicus Read-out: AUC Value: ? 2600

Lab request: please report AUC under test system Rattus norvegicus for "O=C(O)COC[C@H]1CC[C@H](COC(=O)N(c2ccccc2)c2cccc(F)c2)CC1" 7900

Form entry - test system: Rattus norvegicus; read-out: AUC; compound: "O=C(O)COC[C@H]1CC[C@H](COC(=O)N(c2ccccc2)c2ccc(F)c(F)c2)CC1" 4500

So what AUC did "O=C(O)COC[C@H]1CC[C@H](COC(=O)N(c2ccccc2)c2ccc(Cl)cc2)CC1" get with Rattus norvegicus? 14600

Checklist item: AUC tested on Rattus norvegicus, entry "O=C(O)COC[C@H]1CC[C@H](COC(=O)N(c2ccccc2)c2ccc(F)cc2)CC1" , value? 7900

###

assay: Volume of distribution at steady state in Sprague-Dawley rat at 2 mg/kg, iv or 10 mg/kg, po; type: ADME, organism-based; settings: in vivo
Parameter: Vd. Scope: all listed entries.
Express the result in L/kg but write the number alone.

Worked cases, Vd given:
{"columns": ["COMPOUND STRING", "EXPERIMENTAL ENDPOINT", "UNIT ABBREV", "RECORDED MEASUREMENT"],
 "data": [
  ["O=C(O)COC[C@H]1CC[C@H](COC(=O)N(c2ccccc2)c2ccc(F)cc2)CC1", "Vd", "L/kg", 6.2],
  ["COc1cccc(N(C(=O)OC[C@H]2CC[C@H](COCC(=O)O)CC2)c2ccccc2)c1", "Vd", "L/kg", 6.3],
  ["O=C(O)COC[C@H]1CC[C@H](COC(=O)N(c2ccccc2)c2cccc(F)c2)CC1", "Vd", "L/kg", 2.74],
  ["O=C(O)COC[C@H]1CC[C@H](COC(=O)N(c2ccccc2)c2ccc(Cl)c(F)c2)CC1", "Vd", "L/kg", 3.5],
  ["O=C(O)COC[C@H]1CC[C@H](COC(=O)N(c2ccccc2)c2ccc(F)c(F)c2)CC1", "Vd", "L/kg", 1.1]
]}

Then this molecule:
Query: Vd; subject: "COc1ccc(N(C(=O)OC[C@H]2CC[C@H](COCC(=O)O)CC2)c2ccccc2)cc1" 0.71

###

assay: Total clearance in cynomolgus monkey at 0.1 mg/kg, iv; format: ADME, organism-based, Macaca fascicularis; details: in vivo
EXPERIMENTAL ENDPOINT: clearance (mL/min/kg)
Quick reminder: number only, in mL/min/kg, skip the unit.

Given the entry "O=C(O)COC[C@H]1CC[C@H](COC(=O)N(c2ccccc2)c2ccc(Cl)cc2)CC1" , report its measured clearance. 14.7

###

assay: Half life in human microsomes; format: ADME, Microsome
EXPERIMENTAL ENDPOINT: half-life

So what's the measured half-life for this one? "O=C(O)COC[C@H]1CC[C@@H](COC(=O)N(c2ccccc2)c2cccc(Cl)c2)CC1" > 1 h

###

molecular target: Prostaglandin D2 receptor (Homo sapiens, UniProt Q13258); assay: Agonist activity at recombinant human DP1 receptor expressed in CHO-K1 cells assessed as increase in intracellular cAMP level after 1 hr incubation by HTRF method
Sequence (Q13258 whole entry): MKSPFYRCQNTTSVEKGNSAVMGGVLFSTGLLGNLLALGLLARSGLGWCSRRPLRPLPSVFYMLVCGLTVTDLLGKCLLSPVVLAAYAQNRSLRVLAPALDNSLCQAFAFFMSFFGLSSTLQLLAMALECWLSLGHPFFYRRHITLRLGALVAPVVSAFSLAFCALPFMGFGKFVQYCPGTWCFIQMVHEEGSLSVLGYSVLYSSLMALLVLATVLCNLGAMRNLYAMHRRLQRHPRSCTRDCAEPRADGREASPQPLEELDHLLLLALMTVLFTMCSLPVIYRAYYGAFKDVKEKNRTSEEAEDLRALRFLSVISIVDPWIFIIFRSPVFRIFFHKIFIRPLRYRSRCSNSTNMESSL
EXPERIMENTAL ENDPOINT: EC50 (µM)
Just the number please, in µM, no unit attached.

# get_value(readout='EC50', item= "CC(C)N(CCCCOCC(=O)NS(C)(=O)=O)c1cnc(-c2ccccc2)c(-c2ccccc2)n1" ) 0.1
